# System: Vero E6
# PROCEDURE TEXT: cell viability relative to DMSO; higher = less toxic
# STATED CONDITIONS: 72 h; 1 nM
VALUE KIND: cell viability (%)
Your answer should be a plain number; it is taken to be in %.

Prompt: Looking for the measured cell viability of "COc1cccc(CCc2ccccc2OCC[C@@H]2C[C@@H](O)CN2C)c1" , can you help?
Response: 105

Prompt: # iterate: "CCN(c1ccccc1)c1cc(=NC)n(C)c(C)n1"
Response: 108

Prompt: # iterate: "Cn1cc(-c2ccc3ncc(Cc4ccc5ncccc5c4)n3n2)cn1"
Response: 103

Prompt: # iterate: CC1Oc2cc(cnc2N)-c2c(nn(C)c2C#N)CN(C)C(=O)c2ccc(F)cc21 (stereo not given)
Response: 103

Prompt: # iterate: "COc1cc2c(Nc3ccc(NC(=O)c4ccccc4)cc3)ncnc2cc1OCCCN1CCOCC1"
Response: 99.7

Prompt: # iterate: "CCS(=O)(=O)N1CCC([C@@H](C)n2c(C)c(C(=O)NCc3c(OC)cc(C)[nH]c3=O)c3ccccc32)CC1"
Response: 100

Prompt: # iterate: "O=C(Nc1ccc(-c2ccncc2)cc1)N[C@H](CO)c1ccccc1"
Response: 97

Prompt: # iterate: "CCOc1cc([C@@H](CS(C)(=O)=O)N2C(=O)c3cccc(NC(C)=O)c3C2=O)ccc1OC"
Response: 104

Prompt: # iterate: "CC(=O)Nc1ccc(S(=O)(=O)c2ccc(NC(C)=O)cc2)cc1"
Response: 106

Prompt: # iterate: "Fc1ccc2c(CCNCc3cccc(OCC(F)(F)C(F)F)c3)c[nH]c2c1"
Response: 101

Prompt: # iterate: "CC1(N)CCN(c2cnc(-c3cccc(Cl)c3Cl)c(N)n2)CC1"
Response: 103

Prompt: # iterate: "CCNC(=O)C[C@@H]1N=C(c2ccc(Cl)cc2)c2cc(OC)ccc2-n2c(C)nnc21"
Response: 98.1

Prompt: # iterate: "Cc1ccnc(NS(=O)(=O)c2ccc(N)cc2)n1"
Response: 104

Prompt: # iterate: Cc1cccc(C)c1NC(=O)c1ccccc1C(=O)O [ftaxilide]
Response: 107

Prompt: # iterate: COc1cc(C)nc(-n2nc(C)cc2OC)n1 [epirizole]
Response: 112

Prompt: # iterate: "O=C(Nc1c(Cl)cncc1Cl)c1ccc(OC(F)F)c(OCC2CC2)c1"
Response: 101

Prompt: # iterate: CC(N)Cc1c[nH]c2ccc(OCc3cccs3)cc12 (stereo not given)
Response: 96

Prompt: # iterate: "CCNC(=O)[C@H]1O[C@@H](n2cnc3c(N)ncnc32)[C@H](O)[C@@H]1O"
Response: 100

Prompt: # iterate: "CCOC(=O)c1ccc(O)cc1"
Response: 102

Prompt: # iterate: "C#Cc1cccc(Nc2ncnc3cc(OCCOC)c(OCCOC)cc23)c1"
Response: 111

----------
# Tested on: Calu-3
# PROCEDURE TEXT: cell viability relative to DMSO; higher = less toxic
# STATED CONDITIONS: 72 h; 10 nM
I'd be grateful if you could share measured cell viability for these entries.
Your answer should be a plain number; it is taken to be in %.

Prompt: Looking for the measured cell viability of "CS(=O)(=O)Nc1ccc(Cc2noc(-c3ccc4[nH]cc(CCN)c4c3)n2)cc1" , can you help?
Response: 101

Prompt: # iterate: CC(C)(C)NCC(O)c1ccc(O)c(CO)c1 (centres undefined)
Response: 97.2

Prompt: # iterate: "CC(C)[C@H]1[C@@H]2CC[C@@H](C2)[C@@H]1N"
Response: 99.7

Prompt: # iterate: "Cc1noc(NS(=O)(=O)c2cccc3c(N(C)C)cccc23)c1C"
Response: 104

Prompt: # iterate: "CCCCCCCCOc1ccccc1C(=O)Nc1ccc(C(=O)OCC[N+](C)(CC)CC)cc1"
Response: 104

Prompt: # iterate: "CCN(CC)CCOC(=O)C1(C2CCCCC2)CCCCC1"
Response: 104

Prompt: # iterate: CC1Oc2cc(cnc2N)-c2c(nn(C)c2C#N)CN(C)C(=O)c2ccc(F)cc21 (centres undefined)
Response: 95.5

Prompt: # iterate: COc1ccc2[nH]c([S+]([O-])Cc3ncc(C)c(OC)c3C)nc2c1 (centres undefined)
Response: 94.3

Prompt: # iterate: "Cc1cc(Nc2ncnc3ccc(-c4ccc(CNCCS(C)(=O)=O)o4)cc23)ccc1Oc1ccn2ncnc2c1"
Response: 88.4
